Subject of test: rat SST-R5 (Rattus norvegicus)
Sequence (P30938 1-363): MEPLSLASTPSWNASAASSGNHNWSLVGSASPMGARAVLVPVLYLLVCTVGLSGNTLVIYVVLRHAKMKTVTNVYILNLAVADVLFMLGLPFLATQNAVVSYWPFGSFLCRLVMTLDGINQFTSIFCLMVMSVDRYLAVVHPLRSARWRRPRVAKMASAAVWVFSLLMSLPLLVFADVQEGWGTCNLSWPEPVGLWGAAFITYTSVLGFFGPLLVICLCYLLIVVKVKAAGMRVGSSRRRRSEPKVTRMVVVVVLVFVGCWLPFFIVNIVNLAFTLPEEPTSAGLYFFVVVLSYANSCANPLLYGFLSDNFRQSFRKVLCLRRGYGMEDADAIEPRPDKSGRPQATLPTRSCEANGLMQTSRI
Protocol details: Subtype selectivity binding, rat SST-R5
Condition description: rat SST-R5; read-out: Selectivity: IC50, nM, rat SST-R-5
Property: IC50 (nM)
// note: answer is a bare numeric in nM

Reference set (2 entries):
substance="ReO-MA-Gly-Gly-Gly-6-aminohexanoic acid-Dab*-Phe-Trp-(D)Trp-Lys-Thr-Phe-GlyC3*-NH2 [PTR 3401]" measured_number=3.7
substance="ReO-MA-Dpr(Gly)-Gly-Dab*-Phe-Trp-(D)Trp-Lys-Thr-Phe-GlyC3*-NH2 [ReO-3397]" measured_number=2.2

Please find the next substance below.
q: Which IC50 is listed for ReO-MA-Dpr(Gly)-βAla-Dab*-Phe-Trp-(D)Trp-Lys-Thr-Phe-GlyC3*-NH2 [PTR 3399] ?
a: 1.3

---

Subject of test: SST-R2 (Homo sapiens)
Protocol details: Inhibition of SRIF binding to SST-R2 (species not stated)
Condition description: read-out: IC50 Screen SRIF Inhibited (%) 1 nM
Property: inhibition at 0.001 µM (%)
// note: answer is a bare numeric in %

q: Which inhibition at 0.001 µM is listed for "C[C@@H](O)[C@@H]1NC(=O)[C@H](CCCCN)NC(=O)[C@@H](Cc2c[nH]c3ccccc23)NC(=O)[C@H](Cc2c[nH]c3ccccc23)NC(=O)[C@H](Cc2ccccc2)NC(=O)[C@@H](NC(=O)CCNC(=O)CN(CCN(CCN(CC(=O)O)CC(=O)O)CC(=O)O)CC(=O)O)CCNC(=O)CCCN(CC(N)=O)C(=O)[C@H](Cc2ccccc2)NC1=O" ?
a: 17

---

Subject of test: rat SST-R1 (Rattus norvegicus, UniProt P28646)
Sequence (P28646 whole entry): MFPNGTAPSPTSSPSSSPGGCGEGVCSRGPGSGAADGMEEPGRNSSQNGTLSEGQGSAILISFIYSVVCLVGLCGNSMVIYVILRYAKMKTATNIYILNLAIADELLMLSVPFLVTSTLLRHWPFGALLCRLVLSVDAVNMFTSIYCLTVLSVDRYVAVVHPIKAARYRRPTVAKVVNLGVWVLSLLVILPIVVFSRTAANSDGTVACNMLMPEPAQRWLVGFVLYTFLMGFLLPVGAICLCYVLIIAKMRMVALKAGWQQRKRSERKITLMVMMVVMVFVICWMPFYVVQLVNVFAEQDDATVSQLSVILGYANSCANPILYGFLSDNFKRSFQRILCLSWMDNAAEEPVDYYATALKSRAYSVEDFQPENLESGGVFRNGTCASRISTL
Protocol details: Subtype selectivity binding, rat SST-R1
Condition description: # rows: determined in rat somatostatin receptors; read-out: Concentration (nM) of SST analogs to inhibit SRIF binding by 50%, SST-R 1
Property: IC50 (nM)
// note: answer is a bare numeric in nM

Reference set (2 entries):
substance="ReO-MA-Dpr(Gly)-βAla-Dab*-Phe-Trp-(D)Trp-Lys-Thr-Phe-GlyC3*-NH2 [PTR 3399]" subject_of_test="rat SST-R1 (Rattus norvegicus, UniProt P28646)" measured_number=156
substance="ReO-MA-Dpr(Gly)-Gly-Dab*-Phe-Trp-(D)Trp-Lys-Thr-Phe-GlyC3*-NH2 [ReO-3397]" subject_of_test="rat SST-R1 (Rattus norvegicus, UniProt P28646)" measured_number=89

Please find the next substance below.
q: So what IC50 did ReO-MA-Gly-Gly-Gly-6-aminohexanoic acid-Dab*-Phe-Trp-(D)Trp-Lys-Thr-Phe-GlyC3*-NH2 [PTR 3401] get with rat SST-R1 (Rattus norvegicus, UniProt P28646)?
a: 402

---

Subject of test: SST-R2 (Homo sapiens, UniProt P30874)
Sequence (P30874 whole entry): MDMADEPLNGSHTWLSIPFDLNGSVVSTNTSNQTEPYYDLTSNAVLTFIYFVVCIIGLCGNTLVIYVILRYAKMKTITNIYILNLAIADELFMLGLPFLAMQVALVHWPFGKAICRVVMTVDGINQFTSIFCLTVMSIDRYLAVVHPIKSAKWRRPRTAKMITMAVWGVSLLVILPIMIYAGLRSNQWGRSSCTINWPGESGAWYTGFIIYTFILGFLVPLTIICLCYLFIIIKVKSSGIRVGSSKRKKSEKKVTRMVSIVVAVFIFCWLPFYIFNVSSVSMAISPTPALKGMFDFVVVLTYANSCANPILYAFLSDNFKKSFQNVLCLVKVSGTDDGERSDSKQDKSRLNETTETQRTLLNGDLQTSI
Protocol details: Inhibition of SRIF binding to SST-R2 (species not stated)
Condition description: read-out: IC50 Screen SRIF Inhibited (%) 10 nM
Property: inhibition at 0.01 µM (%)
// note: answer is a bare numeric in %

Reference set (3 entries):
compound_smiles=C[C@@H](O)[C@@H]1NC(=O)[C@H](CCCCN)NC(=O)[C@@H](Cc2c[nH]c3ccccc23)NC(=O)[C@H](Cc2c[nH]c3ccccc23)NC(=O)[C@H](Cc2ccccc2)NC(=O)[C@@H](NC(=O)CCNC(=O)CN(CCN(CCN(CC(=O)O)CC(=O)O)CC(=O)O)CC(=O)O)CCNC(=O)CCCN(CC(N)=O)C(=O)[C@H](Cc2ccccc2)NC1=O measured_number=52
compound_smiles=C[C@@H](O)[C@@H]1NC(=O)[C@H](CCCCN)NC(=O)[C@@H](Cc2c[nH]c3ccccc23)NC(=O)[C@H](Cc2c[nH]c3ccccc23)NC(=O)[C@H](Cc2ccccc2)NC(=O)[C@@H](NC(=O)CCCNC(=O)CN(CCN(CCN(CC(=O)O)CC(=O)O)CC(=O)O)CC(=O)O)CCNC(=O)CCCN(CC(N)=O)C(=O)[C@H](Cc2ccccc2)NC1=O measured_number=44
compound_smiles=C[C@@H](O)[C@@H]1NC(=O)[C@H](CCCCN)NC(=O)[C@@H](Cc2c[nH]c3ccccc23)NC(=O)[C@H](Cc2c[nH]c3ccccc23)NC(=O)[C@H](Cc2ccccc2)NC(=O)[C@@H](NC(=O)CNC(=O)CN(CCN(CCN(CC(=O)O)CC(=O)O)CC(=O)O)CC(=O)O)CCNC(=O)CCCN(CC(N)=O)C(=O)[C@H](Cc2ccccc2)NC1=O measured_number=57

Please find the next compound below.
q: So what inhibition at 0.01 µM did "C[C@@H](O)[C@@H]1NC(=O)[C@H](CCCCN)NC(=O)[C@@H](Cc2c[nH]c3ccccc23)NC(=O)[C@H](Cc2c[nH]c3ccccc23)NC(=O)[C@H](Cc2ccccc2)NC(=O)[C@@H](NC(=O)CN(CCN(CCN(CC(=O)O)CC(=O)O)CC(=O)O)CC(=O)O)CCNC(=O)CCCN(CC(N)=O)C(=O)[C@H](Cc2ccccc2)NC1=O" get with SST-R2 (Homo sapiens, UniProt P30874)?
a: 69

---

Subject of test: SST-R2 (Homo sapiens, UniProt P30874)
Protocol details: Inhibition of SRIF binding to SST-R2 (species not stated)
Condition description: read-out: IC50 Screen SRIF Inhibited (%) 0.01 nM
Property: inhibition at 10 pM
Please report the result as a number followed by the unit.

Reference set (2 entries):
compound_smiles=C[C@@H](O)[C@@H]1NC(=O)[C@H](CCCCN)NC(=O)[C@@H](Cc2c[nH]c3ccccc23)NC(=O)[C@H](Cc2c[nH]c3ccccc23)NC(=O)[C@H](Cc2ccccc2)NC(=O)[C@@H](NC(=O)CCCNC(=O)CN(CCN(CCN(CC(=O)O)CC(=O)O)CC(=O)O)CC(=O)O)CCNC(=O)CCCN(CC(N)=O)C(=O)[C@H](Cc2ccccc2)NC1=O result=-9.5%
compound_smiles=C[C@@H](O)[C@@H]1NC(=O)[C@H](CCCCN)NC(=O)[C@@H](Cc2c[nH]c3ccccc23)NC(=O)[C@H](Cc2c[nH]c3ccccc23)NC(=O)[C@H](Cc2ccccc2)NC(=O)[C@@H](NC(=O)CN(CCN(CCN(CC(=O)O)CC(=O)O)CC(=O)O)CC(=O)O)CCNC(=O)CCCN(CC(N)=O)C(=O)[C@H](Cc2ccccc2)NC1=O result=-8.5%

q: Which inhibition at 10 pM is listed for "C[C@@H](O)[C@@H]1NC(=O)[C@H](CCCCN)NC(=O)[C@@H](Cc2c[nH]c3ccccc23)NC(=O)[C@H](Cc2c[nH]c3ccccc23)NC(=O)[C@H](Cc2ccccc2)NC(=O)[C@@H](NC(=O)CCNC(=O)CN(CCN(CCN(CC(=O)O)CC(=O)O)CC(=O)O)CC(=O)O)CCNC(=O)CCCN(CC(N)=O)C(=O)[C@H](Cc2ccccc2)NC1=O" ?
a: -11%

q: Query "C[C@@H](O)[C@@H]1NC(=O)[C@H](CCCCN)NC(=O)[C@@H](Cc2c[nH]c3ccccc23)NC(=O)[C@H](Cc2c[nH]c3ccccc23)NC(=O)[C@H](Cc2ccccc2)NC(=O)[C@@H](NC(=O)CNC(=O)CN(CCN(CCN(CC(=O)O)CC(=O)O)CC(=O)O)CC(=O)O)CCNC(=O)CCCN(CC(N)=O)C(=O)[C@H](Cc2ccccc2)NC1=O" next
a: -8.5%

---

Subject of test: rat SST-R5 (Rattus norvegicus)
Protocol details: Subtype selectivity binding, rat SST-R5
Condition description: # rows: determined in rat somatostatin receptors; read-out: Concentration (nM) of SST analogs to inhibit SRIF binding by 50%, SST-R 5
Property: IC50 (nM)
// note: answer is a bare numeric in nM

Reference set (2 entries):
substance="ReO-MA-Dpr(Gly)-Gly-Dab*-Phe-Trp-(D)Trp-Lys-Thr-Phe-GlyC3*-NH2 [ReO-3397]" measured_number=2.2
substance="ReO-MA-Dpr(Gly)-βAla-Dab*-Phe-Trp-(D)Trp-Lys-Thr-Phe-GlyC3*-NH2 [PTR 3399]" measured_number=1.3

q: So what IC50 did ReO-MA-Gly-Gly-Gly-6-aminohexanoic acid-Dab*-Phe-Trp-(D)Trp-Lys-Thr-Phe-GlyC3*-NH2 [PTR 3401] get with rat SST-R5 (Rattus norvegicus)?
a: 3.7
